Assay: Aging promotion testing: sunlight 30 min / fading one hour cycles, 10 days (durability, coloring degree)
Format: physicochemical
Settings: single chromene compound in polymer, 10 days aging; Table 5
VALUE_KIND: Light resistance (durability) (%)

{"COMPOUND": "COc1ccc(C2(c3ccc(OC)cc3)C=Cc3ccc4ccccc4c3O2)cc1 [a, reference compound]", "Light resistance (durability) (%)": 97}
{"COMPOUND": "C1=CC2(Oc3c1ccc1ccccc31)C1CCCC2CCC1 (stereo not shown) [d, reference compound]", "Light resistance (durability) (%)": 98}
{"COMPOUND": "CCOc1ccc(C2(c3ccc(OC)cc3)C=Cc3c(CC)cc4c(Cc5ccccc5)cccc4c3O2)cc1 (stereo not shown)", "Light resistance (durability) (%)": 96}
{"COMPOUND": "CC(C)(C)c1cc2ccccc2c2c1C=CC1(O2)C2(Cl)CCCC1(Cl)CCC2 (stereo not shown)", "Light resistance (durability) (%)": 80}
